Molecular target: ArgB (Mycobacterium tuberculosis)
Assay: biochemical
Type: binding
Conditions: ITC Kd, six-site sequential binding model, 3rd value, 25 °C, sequential binding, six-site model
MEASURE NAME: Kd
Just so you know, I need the unit written after the number.

Input: Read off the recorded Kd for N=C(N)NCCC[C@H](N)C(=O)O
Output: 6.1 µM

Others:
Input: Give reported Kd value for NC(N)=NOCC[C@H](N)C(=O)O [L-canavanine, reference compound]
Output: 6.4 µM

----------
Biological target: UniProt P9WQ01
Experiment: biochemical
Assay type: binding
Conditions: 25 °C, single-site model; read-out: ITC Kd
MEASURE NAME: Kd
Number first, unit second.

Input: Return reported Kd. Input compound: O=c1cc[nH]c2c(C(F)(F)F)cccc12 [NMR446, 8-(trifluoromethyl)-1H-quinolin-4-one]
Output: 24 µM

Next up:
Input: State, in one line, measured Kd of O=c1cc(C(F)(F)F)[nH]c2c(C(F)(F)F)cccc12 [NMR711]
Output: 7.7 µM
